Catalogue of kinase still bound, per cent of control readings, one per entry.
target: STK25 (human); experiment: KINOMEscan competition binding; details: compound 10.0 µM

- mol smiles: "OCCCNc1cc(-c2ccnc(Nc3cccc(Cl)c3)n2)ccn1"
  tgt: "STK25 (human)"
  kinase still bound, per cent of control [%]: 100
- mol smiles: "Cn1c(=O)n(-c2ccc(C(C)(C)C#N)cc2)c2c3cc(-c4cnc5ccccc5c4)ccc3ncc21"
  tgt: "STK25 (human)"
  kinase still bound, per cent of control [%]: 100
- mol smiles: "O=C(NC1CC1)c1cccc(-c2ccc3c(NC(=O)C4CC4)n[nH]c3c2)c1"
  tgt: "STK25 (human)"
  kinase still bound, per cent of control [%]: 76
- mol smiles: "Cc1cc([C@@H](C)Nc2ccccc2C(=O)O)c2nc(N3CCOCC3)cc(=O)n2c1"
  tgt: "STK25 (human)"
  kinase still bound, per cent of control [%]: 76
- mol smiles: "CCC(=O)N1CCN(c2ccc(-n3c(=O)ccc4cnc5ccc(-c6cnc7ccccc7c6)cc5c43)cc2C(F)(F)F)CC1"
  tgt: "STK25 (human)"
  kinase still bound, per cent of control [%]: 84
- mol smiles: "Nc1ccc(-c2ccc3ncc4ccc(=O)n(-c5cccc(C(F)(F)F)c5)c4c3c2)cn1"
  tgt: "STK25 (human)"
  kinase still bound, per cent of control [%]: 56
- mol smiles: "Cc1ccc2nc(NCCN)c3ncc(C)n3c2c1"
  tgt: "STK25 (human)"
  kinase still bound, per cent of control [%]: 79
- mol smiles: "COc1cc(C(=O)NC2CCN(C)CC2)ccc1Nc1ncc2c(n1)N(C1CCCC1)CCC(=O)N2C(C)C"
  tgt: "STK25 (human)"
  kinase still bound, per cent of control [%]: 100
- mol smiles: "C[C@@H](Oc1cc(-n2cnc3ccc(CN4CCN(C)CC4)cc32)sc1C(N)=O)c1ccccc1C(F)(F)F"
  tgt: "STK25 (human)"
  kinase still bound, per cent of control [%]: 83
- mol smiles: "CCOc1cc2ncc(C#N)c(Nc3ccc(OCc4ccccn4)c(Cl)c3)c2cc1NC(=O)/C=C/CN(C)C"
  tgt: "STK25 (human)"
  kinase still bound, per cent of control [%]: 13
- mol smiles: "C=CC(=O)Nc1cccc(Nc2nc(N[C@H]3CC[C@H](N(C)C)CC3)nc3c2ncn3C(C)C)c1"
  tgt: "STK25 (human)"
  kinase still bound, per cent of control [%]: 89
- mol smiles: "Cc1ccc(NC(=O)c2cccc(C(C)(C)C#N)c2)cc1Nc1ccc2ncn(C)c(=O)c2c1"
  tgt: "STK25 (human)"
  kinase still bound, per cent of control [%]: 100
- mol smiles: "O=C(NOC[C@H](O)CO)c1ccc(F)c(F)c1Nc1ccc(I)cc1F"
  tgt: "STK25 (human)"
  kinase still bound, per cent of control [%]: 91
- mol smiles: "C=CC(=O)Nc1cc(NC(=O)c2ccc(C)c(NC(=O)c3ccno3)c2)cc(C(F)(F)F)c1"
  tgt: "STK25 (human)"
  kinase still bound, per cent of control [%]: 100
- mol smiles: "Cc1ccc(C(=O)Nc2cccc(C(F)(F)F)c2)cc1Nc1cncc(C(N)=O)c1"
  tgt: "STK25 (human)"
  kinase still bound, per cent of control [%]: 100
- mol smiles: "COc1cc(N2CCN(C)CC2)ccc1Nc1nc(N)c(C(=O)c2c(Cl)cccc2Cl)s1"
  tgt: "STK25 (human)"
  kinase still bound, per cent of control [%]: 66

###

target: DCLK1 (human) (UniProt O15075); assay: KINOMEscan competition binding; settings: compound 10.0 µM
Sequence (O15075 whole entry, looked up): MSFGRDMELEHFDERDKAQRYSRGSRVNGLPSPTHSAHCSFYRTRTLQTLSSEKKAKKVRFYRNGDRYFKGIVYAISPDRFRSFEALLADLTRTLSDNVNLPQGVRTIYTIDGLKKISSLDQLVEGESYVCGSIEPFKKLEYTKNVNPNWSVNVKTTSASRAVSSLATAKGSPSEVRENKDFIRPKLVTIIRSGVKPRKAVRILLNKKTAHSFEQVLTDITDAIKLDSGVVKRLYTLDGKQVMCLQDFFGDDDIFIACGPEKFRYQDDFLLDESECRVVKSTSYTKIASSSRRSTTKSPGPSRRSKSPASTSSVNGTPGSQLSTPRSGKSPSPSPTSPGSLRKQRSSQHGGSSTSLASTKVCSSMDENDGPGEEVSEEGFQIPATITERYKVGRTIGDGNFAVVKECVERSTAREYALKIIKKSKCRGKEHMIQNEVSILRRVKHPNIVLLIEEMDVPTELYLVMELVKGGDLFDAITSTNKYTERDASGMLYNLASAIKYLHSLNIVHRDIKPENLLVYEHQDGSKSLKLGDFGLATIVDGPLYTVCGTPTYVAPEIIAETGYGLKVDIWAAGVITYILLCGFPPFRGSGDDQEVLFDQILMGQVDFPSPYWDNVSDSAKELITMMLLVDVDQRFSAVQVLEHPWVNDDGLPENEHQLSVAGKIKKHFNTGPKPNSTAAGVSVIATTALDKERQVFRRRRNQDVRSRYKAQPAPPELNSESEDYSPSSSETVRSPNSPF
Catalogue of kinase still bound, per cent of control readings, one per entry.
endpoint: kinase still bound, per cent of control (%)

- mol smiles: "Cc1ccc(NC(=O)c2cccc(C(C)(C)C#N)c2)cc1Nc1ccc2ncn(C)c(=O)c2c1"
  numeric value: 97
- mol smiles: "O=C(NC1CC1)c1cccc(-c2ccc3c(NC(=O)C4CC4)n[nH]c3c2)c1"
  numeric value: 96
- mol smiles: "CCN1CCN(Cc2ccc(Nc3ncc4c(n3)N(C)c3ccccc3C(=O)N4C)cc2C(F)(F)F)CC1"
  numeric value: 4.4
- mol smiles: "CCC(=O)N1CCN(c2ccc(-n3c(=O)ccc4cnc5ccc(-c6cnc7ccccc7c6)cc5c43)cc2C(F)(F)F)CC1"
  numeric value: 100
- mol smiles: "Cc1ccc(C(=O)Nc2cccc(C(F)(F)F)c2)cc1Nc1cncc(C(N)=O)c1"
  numeric value: 100
- mol smiles: "COc1cc(C(=O)NC2CCN(C)CC2)ccc1Nc1ncc2c(n1)N(C1CCCC1)CCC(=O)N2C(C)C"
  numeric value: 100
- mol smiles: "Nc1ccc(-c2ccc3ncc4ccc(=O)n(-c5cccc(C(F)(F)F)c5)c4c3c2)cn1"
  numeric value: 97

###

system: KIT (human), P10721 [V559D]; assay: KINOMEscan competition binding; conditions: compound 10.0 µM
Sequence (P10721 whole entry V559D, looked up): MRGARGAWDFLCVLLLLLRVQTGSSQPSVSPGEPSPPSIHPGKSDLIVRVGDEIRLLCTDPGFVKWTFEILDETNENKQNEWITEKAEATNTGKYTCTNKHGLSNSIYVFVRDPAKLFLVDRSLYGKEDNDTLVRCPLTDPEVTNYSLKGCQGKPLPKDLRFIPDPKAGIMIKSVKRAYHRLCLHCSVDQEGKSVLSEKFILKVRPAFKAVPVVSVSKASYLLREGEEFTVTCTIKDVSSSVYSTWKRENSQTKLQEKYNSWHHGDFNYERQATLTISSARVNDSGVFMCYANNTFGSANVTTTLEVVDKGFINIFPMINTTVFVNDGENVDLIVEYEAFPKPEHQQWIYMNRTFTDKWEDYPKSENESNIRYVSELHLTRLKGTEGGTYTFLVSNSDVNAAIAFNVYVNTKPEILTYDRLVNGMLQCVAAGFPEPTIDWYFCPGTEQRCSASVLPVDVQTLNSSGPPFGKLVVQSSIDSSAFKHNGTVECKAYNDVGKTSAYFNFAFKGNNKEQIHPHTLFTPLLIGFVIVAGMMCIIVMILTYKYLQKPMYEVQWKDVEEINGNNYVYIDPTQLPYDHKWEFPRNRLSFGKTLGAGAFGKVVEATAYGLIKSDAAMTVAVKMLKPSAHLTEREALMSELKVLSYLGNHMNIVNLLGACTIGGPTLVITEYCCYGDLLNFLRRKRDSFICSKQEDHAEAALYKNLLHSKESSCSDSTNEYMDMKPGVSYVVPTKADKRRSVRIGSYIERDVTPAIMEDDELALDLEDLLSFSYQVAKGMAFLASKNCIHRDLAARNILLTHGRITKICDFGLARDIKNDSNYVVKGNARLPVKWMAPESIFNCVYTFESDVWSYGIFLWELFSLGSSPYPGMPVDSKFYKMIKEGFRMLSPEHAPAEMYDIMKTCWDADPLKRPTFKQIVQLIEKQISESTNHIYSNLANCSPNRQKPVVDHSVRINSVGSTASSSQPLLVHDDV
Catalogue of kinase still bound, per cent of control readings, one per entry.
endpoint: kinase still bound, per cent of control (%)

- compound: "COc1cc(C)c(Sc2cnc(NC(=O)c3ccc(CNC(C)C(C)C)cc3)s2)cc1C(=O)N1CCN(C(C)=O)CC1 (stereo not given)"
  numeric value: 100
- compound: "CCc1nc(-c2cccc(C)c2)c(-c2ccnc(NC(=O)c3ccccc3)c2)s1"
  numeric value: 32
- compound: "Cc1ccc2nc(NCCN)c3ncc(C)n3c2c1"
  numeric value: 23
- compound: "CNC(=O)Nc1ccc(-c2nc(N3CC4CCC(C3)O4)c3cnn(C4CCC5(CC4)OCCO5)c3n2)cc1"
  numeric value: 85
- compound: "CC(=O)c1c(C)c2cnc(Nc3ccc(N4CCNCC4)cn3)nc2n(C2CCCC2)c1=O"
  numeric value: 45
- compound: "O=C1Nc2ccc(I)cc2/C1=C/c1cc(Br)c(O)c(Br)c1"
  numeric value: 1.8
- compound: "Nc1ccc(-c2ccc3ncc4ccc(=O)n(-c5cccc(C(F)(F)F)c5)c4c3c2)cn1"
  numeric value: 55
- compound: "Cn1c(=O)n(-c2ccc(C(C)(C)C#N)cc2)c2c3cc(-c4cnc5ccccc5c4)ccc3ncc21"
  numeric value: 100
- compound: "C=CC(=O)Nc1cccc(Oc2nc(Nc3ccc(N4CCN(C)CC4)cc3OC)ncc2Cl)c1"
  numeric value: 26
- compound: "Cc1cc([C@@H](C)Nc2ccccc2C(=O)O)c2nc(N3CCOCC3)cc(=O)n2c1"
  numeric value: 91
- compound: "Cc1cn(-c2cc(C(=O)Nc3ccc(C)c(NC(=O)c4ccno4)c3)cc(C(F)(F)F)c2)cn1"
  numeric value: 0.15
- compound: "C[C@@H](Oc1cc(-c2cnn(C3CCNCC3)c2)cnc1N)c1c(Cl)ccc(F)c1Cl"
  numeric value: 27
- compound: "O=C(NOC[C@H](O)CO)c1ccc(F)c(F)c1Nc1ccc(I)cc1F"
  numeric value: 74
- compound: "C=CC(=O)Nc1ccc(CN(C(=O)Nc2c(Cl)c(OC)cc(OC)c2Cl)c2cc(Nc3ccc(N4CCN(C)CC4)cc3)ncn2)cc1"
  numeric value: 0.1
- compound: "O=C(O)c1ccc(Nc2ncc3c(n2)-c2ccc(Cl)cc2C(c2c(F)cccc2F)=NC3)cc1"
  numeric value: 63
- compound: "N#Cc1cc(-c2ccnc(Nc3ccc(-n4cnc(-c5cccnc5)n4)cc3)n2)cc(N2CCOCC2)c1"
  numeric value: 1
- compound: "COc1cc(C(=O)NC2CCN(C)CC2)ccc1Nc1ncc2c(n1)N(C1CCCC1)CCC(=O)N2C(C)C"
  numeric value: 100
- compound: "CCN1CCN(C(=O)Cc2ccc(Nc3ncc(F)c(Nc4ccc(C(=O)Nc5ccccc5Cl)cc4)n3)cc2)CC1"
  numeric value: 0.5
- compound: "CNC(=O)c1ccc(Nc2cc(Nc3ccccc3S(=O)(=O)C(C)C)c3cc[nH]c3n2)nc1"
  numeric value: 18
- compound: "O=C1NC(=O)/C(=C/c2ccc3nccc(-c4ccncc4)c3c2)S1"
  numeric value: 30

###

target: SRPK3 (human); assay: KINOMEscan competition binding; conditions: compound 10.0 µM

- mol smiles: "CCCS(=O)(=O)Nc1ccc(F)c(C(=O)c2c[nH]c3ncc(-c4ccc(Cl)cc4)cc23)c1F"
  kinase still bound, per cent of control [%]: 100
- mol smiles: "C[C@@H](Oc1cc(-n2cnc3ccc(CN4CCN(C)CC4)cc32)sc1C(N)=O)c1ccccc1C(F)(F)F"
  kinase still bound, per cent of control [%]: 9.6
- mol smiles: "OCCCNc1cc(-c2ccnc(Nc3cccc(Cl)c3)n2)ccn1"
  kinase still bound, per cent of control [%]: 100
- mol smiles: "N#Cc1c(NC(=O)c2cccc3ccccc23)sc2c1CCCC2"
  kinase still bound, per cent of control [%]: 100
- mol smiles: "Cc1ccc(NC(=O)c2cccc(C(C)(C)C#N)c2)cc1Nc1ccc2ncn(C)c(=O)c2c1"
  kinase still bound, per cent of control [%]: 100
- mol smiles: "O=C(NC1CC1)c1cccc(-c2ccc3c(NC(=O)C4CC4)n[nH]c3c2)c1"
  kinase still bound, per cent of control [%]: 10
- mol smiles: "COc1cc(C(=O)NC2CCN(C)CC2)ccc1Nc1ncc2c(n1)N(C1CCCC1)CCC(=O)N2C(C)C"
  kinase still bound, per cent of control [%]: 100
- mol smiles: "Cc1cc([C@@H](C)Nc2ccccc2C(=O)O)c2nc(N3CCOCC3)cc(=O)n2c1"
  kinase still bound, per cent of control [%]: 100
- mol smiles: "COc1cc(N2CCN(C)CC2)ccc1Nc1nc(N)c(C(=O)c2c(Cl)cccc2Cl)s1"
  kinase still bound, per cent of control [%]: 77
- mol smiles: "CCOc1cc2ncc(C#N)c(Nc3ccc(OCc4ccccn4)c(Cl)c3)c2cc1NC(=O)/C=C/CN(C)C"
  kinase still bound, per cent of control [%]: 77
